Recorded values, source patent US20200216495A1.

Molecular target: Ac-VQIINK-NH2 (SEQ ID NO: 23) (N-terminal acetyl (Ac); C-terminal amide (NH2))
Test: cell-based or functional assay
Square brackets hold non-standard residues; d marks the D form. Ends that are not written are not given here.
Decide using VQIINK Inhibition IC50 alone. Strictly below 1 µm: 1 (yes). Equal to or above 1 µm: 0 (no).

binder | label
[dR][dR][dL][dK][dV][dR][dW][dW] [rrlkvrww] | 0 (no)
[dK][dL][dK][dI][dV][dW] [klkivw] | 0 (no)
[dW][dR][dL][dK][dV][dE][dW] [wrlkvew] | 0 (no)
[dL][dK][dI][dR][dI][dR][dF][dH] [lkirirfh] | 0 (no)
[dR][dT][dL][dK][dI][dV][dW][dR] [rtlkivwr] | 0 (no)
[dF][dR][dL][dK][dV][dR][dW][dW] [frlkvrww] | 1 (yes)
[dW][dN][dL][dK][dV][dR][dW] [wnlkvrw] | 1 (yes)
